# System: hTMEFF1-ECD recombinant deletion mutants
# Experiment Notes: Binding domain determination with hTMEFF1-ECD deletion mutants (Octet)
# Parameters: species or system human; key: FS1—follistatin domain 1; FS2—follistatin domain 2
# Particulars: full length TMEFF1 ECD vs ΔFS1, ΔFS2, ΔFS1&FS2

Molecule: M35: human anti-TMEFF1 IgG1 antibody; VH SEQ ID NO: 134, VL SEQ ID NO: 138 (antibody, V domains shown) VH: QVQLQESGPGLVKPSGTLSLTCAVSGGSISSSNWWSWVRQPPGKGLEWIGEIYHSGSTNYNPSLKSRVTISVDKSKNQFSLKLSSVTAADTAVYYCATMVRGRYYYYGMDVWGQGTTVTVSS VL: DIVMTQSPLSLPVTPGEPASISCRSSQSLLHSDGYNFLDWYLQKPGQSPQFLIYLGSNRASGVPDRFSGVGSGTDFTLQISRVEAEDFGVYYCMQALQAPWTFGQGTKLEIK
Binding region (epitope domain binding): FS1
//
Molecule: 10C10: human anti-TMEFF1 IgG1 antibody; VH SEQ ID NO: 96, VL SEQ ID NO: 93 (antibody, V domains shown) VH: QVQLVESGGGVVQPGRSLRLSCATSGFTFSIYGMHWVRQAPGKGLEWVAIIWYDGNKKYYADSVKGRFTISRDNSKNTLYLQMNSLRAEDTAVYYCARDPYTSSLDYWGQGTLVTVSS VL: DIQLTQSPSFLSASVGDRVTITCRASQGISSYLAWYQQKPGKAPKLLIYAASTLQSGVPSRFSGSGSGTEFTLTISSLQPEDFATYYCQQLNSYPLTFGGGTKLEIK
Binding region (epitope domain binding): FS1
//
Molecule: 37G7: human anti-TMEFF1 IgG1 antibody; VH SEQ ID NO: 85, VL SEQ ID NO: 88 (antibody, V domains shown) VH: QVQLVESGGGVVQPGRSLRLSCAASGFTFTSYGMHWVRQAPGKGLEWVAVVWYEGSSKFYVDSVKGRFIISRDNSKNTLYLQMNSLRAEDTAVYYCARAYCGGDCYPFDYWGQGTLVTVSS VL: DIQMTQSPSSLSASVGDRVTITCRASQGISNYLAWYQQKPGKVPKLLIYAASTLQSGVPSRFSGSGSGTDFTLTISSLQPEDVATYYCQKYNSAPWTFGQGTKVEIK
Binding region (epitope domain binding): FS1
//
Molecule: 11F9: human anti-TMEFF1 IgG1 antibody; VH SEQ ID NO: 71, VL SEQ ID NO: 75 (antibody, V domains shown) VH: EVQLVESGGGLVKPGGSLRLSCAASGFTFSYAWMSWVRQAPGKGLEWVGRIKSKTDGGTTDYAAPVKGRFTISRDDSKNTLYLQLNSLKIEDTAVYYCTTGRIAAAGFDYWAQGTLVTVSS VL: DAVVTQESALTTSPGETVTLTCRSSTGTVTTSNYANWVQEKPDHLFTGLIAGTNNRAPGVPARFSGSLIGDKAVLTITGAQTEDEAIYFCALWYSNHWVFGGGTKLTVLG
Binding region (epitope domain binding): other
